# experimentNotes: Canine pharmacokinetic (PK) study, single IV or oral dose
# experimentalParameters: dog, in vivo, iv, 0.2 mg/kg
Kindly state half-life for each of the entries shown.
The figure you give is taken to be in h; do not add the unit.

Query :: Would you kindly share the measured half-life for CC(C)C[C@H]1C(=O)O[C@H](Cc2ccc(Cn3cc(OC(C)C)cn3)cc2)C(=O)N(C)[C@@H](CC(C)C)C(=O)O[C@H](C)C(=O)N(C)[C@@H](CC(C)C)C(=O)O[C@H](Cc2ccc(Cn3cc(OC(C)C)cn3)cc2)C(=O)N(C)[C@@H](CC(C)C)C(=O)O[C@H](C)C(=O)N1C [Example 1b-19] ?
Result :: 87

Query :: Would you kindly share the measured half-life for CC(C)C[C@H]1C(=O)O[C@H](Cc2ccc(CN3CCOc4ccccc43)cc2)C(=O)N(C)[C@@H](CC(C)C)C(=O)O[C@H](C)C(=O)N(C)[C@@H](CC(C)C)C(=O)O[C@H](Cc2ccc(CN3CCOc4ccccc43)cc2)C(=O)N(C)[C@@H](CC(C)C)C(=O)O[C@H](C)C(=O)N1C [Example 9-26] ?
Result :: 106

Query :: Would you kindly share the measured half-life for CC(C)C[C@H]1C(=O)O[C@H](Cc2ccc(Cn3cc(Br)cn3)cc2)C(=O)N(C)[C@@H](CC(C)C)C(=O)O[C@H](C)C(=O)N(C)[C@@H](CC(C)C)C(=O)O[C@H](Cc2ccc(Cn3cc(Br)cn3)cc2)C(=O)N(C)[C@@H](CC(C)C)C(=O)O[C@H](C)C(=O)N1C [Example 1b-25] ?
Result :: 110

---

# experimentNotes: Canine pharmacokinetic (PK) study, single IV or oral dose
# experimentalParameters: dog, in vivo, iv, 0.2 mg/kg
measuredProperty: Vd
Answer with the number, then the unit.

Query :: Would you kindly share the measured Vd for `CC(C)C[C@H]1C(=O)O[C@H](Cc2ccc(CN3CCOc4ccccc43)cc2)C(=O)N(C)[C@@H](CC(C)C)C(=O)O[C@H](C)C(=O)N(C)[C@@H](CC(C)C)C(=O)O[C@H](Cc2ccc(CN3CCOc4ccccc43)cc2)C(=O)N(C)[C@@H](CC(C)C)C(=O)O[C@H](C)C(=O)N1C` ?
Result :: 0.6 L/kg

Query :: Would you kindly share the measured Vd for `CC(C)C[C@H]1C(=O)O[C@H](Cc2ccc(Cn3cc(OC(C)C)cn3)cc2)C(=O)N(C)[C@@H](CC(C)C)C(=O)O[C@H](C)C(=O)N(C)[C@@H](CC(C)C)C(=O)O[C@H](Cc2ccc(Cn3cc(OC(C)C)cn3)cc2)C(=O)N(C)[C@@H](CC(C)C)C(=O)O[C@H](C)C(=O)N1C` ?
Result :: 7.25 L/kg

Query :: Would you kindly share the measured Vd for `CC(C)C[C@H]1C(=O)O[C@H](Cc2ccc(Cn3nc(C4CC4)cc3C3CC3)cc2)C(=O)N(C)[C@@H](CC(C)C)C(=O)O[C@H](C)C(=O)N(C)[C@@H](CC(C)C)C(=O)O[C@H](Cc2ccc(Cn3nc(C4CC4)cc3C3CC3)cc2)C(=O)N(C)[C@@H](CC(C)C)C(=O)O[C@H](C)C(=O)N1C` ?
Result :: 2.7 L/kg

---

# experimentNotes: Canine pharmacokinetic (PK) study, single IV or oral dose
# experimentalParameters: dog, in vivo, iv, 0.2 mg/kg
measuredProperty: clearance (mL/min/kg)
The figure you give is taken to be in mL/min/kg; do not add the unit.

Query :: Would you kindly share the measured clearance for `CC(C)C[C@H]1C(=O)O[C@H](Cc2ccc(Cn3ccc(-c4ccccc4)n3)cc2)C(=O)N(C)[C@@H](CC(C)C)C(=O)O[C@H](C)C(=O)N(C)[C@@H](CC(C)C)C(=O)O[C@H](Cc2ccc(Cn3ccc(-c4ccccc4)n3)cc2)C(=O)N(C)[C@@H](CC(C)C)C(=O)O[C@H](C)C(=O)N1C` ?
Result :: 1

Query :: Would you kindly share the measured clearance for `CC(C)C[C@H]1C(=O)O[C@H](Cc2ccc(Cn3nc(C4CC4)cc3C3CC3)cc2)C(=O)N(C)[C@@H](CC(C)C)C(=O)O[C@H](C)C(=O)N(C)[C@@H](CC(C)C)C(=O)O[C@H](Cc2ccc(Cn3nc(C4CC4)cc3C3CC3)cc2)C(=O)N(C)[C@@H](CC(C)C)C(=O)O[C@H](C)C(=O)N1C` ?
Result :: 0.9

Query :: Would you kindly share the measured clearance for `CC(C)C[C@H]1C(=O)O[C@H](Cc2ccc(Cn3cc(Br)cn3)cc2)C(=O)N(C)[C@@H](CC(C)C)C(=O)O[C@H](C)C(=O)N(C)[C@@H](CC(C)C)C(=O)O[C@H](Cc2ccc(Cn3cc(Br)cn3)cc2)C(=O)N(C)[C@@H](CC(C)C)C(=O)O[C@H](C)C(=O)N1C` ?
Result :: 2
